System: SK-MEL-28
Test: NCI tumour cell line growth inhibition, 48 h
Activity calls are given as the source filed them. Cut-off read from the data, not from the text of the source: active = GI50 up to about 1.1 µM and inactive = higher.
Catalogue of compounds with associated GI50

Prompt line: Tell me the measured GI50 of COC1=C(OC)C(=O)C(C/C=C/c2c(Cl)nc3sccn23)=C(C)C1=O , please.
Response line: 17.9 µM (inactive)

Prompt line: Cool, now C=CCNC1=C2C[C@@H](C)C[C@@H](OC)[C@H](OC(=O)CN(C)C)[C@H](C)/C=C(\C)[C@@H](OC(N)=O)[C@H](OC)/C=C\C=C(/C)C(=O)NC(=CC1=O)C2=O
Response line: 0.0897 µM (active)

Prompt line: Cool, now COC(=O)C1OC(O[C@H]2CC[C@]3(C)[C@H]4CC=C5[C@@H]6CC(C)(C)CC[C@]6(C(=O)OC)[C@H](O)C[C@@]5(C)[C@]4(C)CC[C@H]3C2(C)C)C(O)C(O)C1O (stereo partly drawn)
Response line: 11.1 µM (inactive)

###

Test system: HCT-116
Test: NCI tumour cell line growth inhibition, 48 h
The source made the active and inactive calls. Cut-off read from the data, not from the text of the source: active = GI50 up to about 1.1 µM and inactive = higher.
Hello, when you answer, please use one of the following outcomes: label 1 (active), label 0 (inactive)

Reference set, count: 8
| COMPOUND | CAT |
| --- | --- |
| Cc1ccc(-n2nnc(C#N)c2O)cc1 | label 0 |
| CCOC(=O)/C=C(/C=C\COC1CCCCO1)c1ccccc1 (stereo not given) | label 0 |
| c1ccc2c(NCCCCCCNc3cccc4ccccc34)cccc2c1 | label 0 |
| C=C(C)CNCCN | label 0 |
| CC1(O)C=CC2CCC1C2O (stereo not given) | label 0 |
| O=C1c2ccccc2C(=O)c2c(O)ccc(O)c21 [QUINIZARIN] | label 0 |
| C[C@]12CCC3[C@@H](CC[C@@H]4c5nonc5CC[C@]34C)C1C/C(=N/O)C2=O (stereo not given in full) | label 0 |
| COC(=O)C1=C(O)C(C(=O)OC)[C@]2(O)[C@H](C(=O)OC)[C@H]1C[C@@H](c1ccccc1OC)[C@H]2C(=O)OC (stereo not given in full) | label 0 |

Prompt line: GET /call?item= CC[C@@]1(O)C(=O)OCc2c1cc1n(c2=O)Cc2c-1nc1ccccc1c2/C=N\NC(=O)C(N)CCSC (stereo not given in full) returns the recorded outcome of this test.
Response line: label 1

Prompt line: Cool, now C/C(CC(=O)Nc1cc(Cl)c(Cl)cc1Cl)=N\NS(=O)(=O)c1ccc(C)cc1
Response line: label 0

###

Catalogue of molecules with associated GI50
Tested on: EKVX
Assay: NCI tumour cell line growth inhibition, 48 h
Calls of active or inactive are those of the source. No stated cut-off is given here; in the data, active = GI50 up to about 1.1 µM and inactive = higher.

Some solved entries appear below for comparison.
| MOLECULE | GI50 |
| --- | --- |
| O=C(O)C1=C/C(=C(/c2ccccc2)c2cc(C(=O)O)c(O)c3ccccc23)c2ccccc2C1=O | > 100 µM (inactive) |
| C=CC1C2=C(C(=O)NCC2)C2OC(O)C3=C(CCNC3=O)C2C1C (stereo not given) | > 100 µM (inactive) |
| CN1CSC(=S)N(c2c3ccccc3nc3ccc(Br)cc23)C1 | 12.9 µM (inactive) |

Prompt line: Tell me the measured GI50 of O=NN1C(c2ccccc2)CC(=NO)CC1c1ccccc1 (stereo not given) , please.
Response line: > 100 µM (inactive)

Prompt line: Cool, now O=C(O)CNS(=O)(=O)c1ccc(NC(=O)c2ccc([N+](=O)[O-])cc2)cc1
Response line: > 100 µM (inactive)

Prompt line: Cool, now Cc1cc(C)c2cc(N)c(Cl)nc2n1
Response line: > 100 µM (inactive)

Prompt line: Cool, now C[C@H](CCC1=NCCN1)[C@H]1CC[C@H]2[C@@H]3[C@H](O)C[C@@H]4C[C@H](O)CC[C@]4(C)[C@H]3CC[C@]12C
Response line: 17.9 µM (inactive)

Prompt line: Cool, now O=C1C[C@@H]2[C@@H](CCC23CCCC3)N1
Response line: > 100 µM (inactive)

Prompt line: Cool, now O=[N+]([O-])c1ccc(C2SCc3nc4ccccc4n32)cc1 (stereo not given)
Response line: 44.3 µM (inactive)

Prompt line: Cool, now CCn1c2ccccc2c2ccc3c(c21)C(=O)C=CC3=O
Response line: 12.1 µM (inactive)
